Reported IC50 values for the following compounds.
# EXPERIMENTAL TARGET: NRAS Q61K (Homo sapiens, UniProt P01111+P62937, Q61K)
# Sequence (P01111 whole entry Q61K): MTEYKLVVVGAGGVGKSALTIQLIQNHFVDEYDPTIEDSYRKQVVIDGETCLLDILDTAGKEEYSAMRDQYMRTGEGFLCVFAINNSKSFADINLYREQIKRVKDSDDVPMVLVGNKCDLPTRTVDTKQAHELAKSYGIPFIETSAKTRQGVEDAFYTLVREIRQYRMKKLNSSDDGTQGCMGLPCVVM
# Sequence (P62937 whole entry): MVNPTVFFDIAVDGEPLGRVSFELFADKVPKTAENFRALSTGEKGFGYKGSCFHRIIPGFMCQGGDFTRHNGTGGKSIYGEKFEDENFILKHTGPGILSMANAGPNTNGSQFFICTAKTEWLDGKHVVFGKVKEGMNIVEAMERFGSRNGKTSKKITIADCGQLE
# ASSAY SUMMARY: Ras-Raf disruption / FRET / MOA assay (BRAF RBD)
# Type: biochemical
# COND: NRAS Q61K; read-out: NRAS Q61K FRET data IC50

CCn1c(-c2cccnc2[C@H](C)OC)c2c3cc(ccc31)-c1cc(O)cc(c1)C[C@H](NC(=O)[C@H](C(C)C)N(C)C(=O)[C@H]1CCCN(C(=O)[C@H]3CN3)C1)C(=O)N1CCC[C@H](N1)C(=O)OCC(C)(C)C2 [Example 165] : 1000 to 10000 nM

Alright, here's another compound for you.
Observed IC50 on NRAS Q61K (Homo sapiens, UniProt P01111+P62937, Q61K) for CCn1c(-c2cccnc2[C@H](C)OC)c2c3cc(ccc31)-c1cc(O)cc(c1)C[C@H](NC(=O)[C@H](C(C)C)N(C)C(=O)N(C)C1CN(C(=O)[C@H]3CN3)C1)C(=O)N1CCC[C@H](N1)C(=O)OCC(C)(C)C2 (atropisomer, axis not shown) [Example 203] , please.
100 to 1000 nM

* * *

# EXPERIMENTAL TARGET: KRAS G12C (Homo sapiens, UniProt P01116+P62937, G12C)
# Sequence (P01116 1-169 isoform P01116-2 G12C): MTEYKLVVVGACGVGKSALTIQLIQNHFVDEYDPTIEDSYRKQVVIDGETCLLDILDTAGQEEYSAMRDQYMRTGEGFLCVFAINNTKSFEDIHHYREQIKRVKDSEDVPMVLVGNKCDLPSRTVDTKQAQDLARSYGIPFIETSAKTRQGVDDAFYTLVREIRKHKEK
# Sequence (P62937 whole entry): as the sequence (P62937 whole entry) above
# ASSAY SUMMARY: Disruption of BRAF RBD interaction with Ras (FRET / MOA assay, with Cyclophilin A)
# Type: biochemical
# COND: read-out: KRAS G12C FRET data, IC50
pIC50: −log10 of the molar value.
Reported pIC50 values for the following molecules.

Solved cases below.
CCn1c(-c2cnccc2COC)c2c3cc(ccc31)-c1cc(O)cc(c1)C[C@H](NC(=O)[C@H](C(C)C)N(C)C(=O)O[C@H]1CCOC1)C(=O)N1CCC[C@H](N1)C(=O)OCC(C)(C)C2 : 6.00 to 7.00
CCn1c(-c2cccnc2[C@H](C)OC)c2c3cc(ccc31)-c1cc(O)cc(c1)C[C@H](NC(=O)C(C1CC1)C1CC1)C(=O)N1CCC[C@H](N1)C(=O)OCC(C)(C)C2 : 6.00 to 7.00
CCn1c(-c2cccnc2[C@H](C)OC)c2c3cc(ccc31)-c1cc(O)cc(c1)C[C@H](NC(=O)[C@H](C(C)C)N(C)C(=O)[C@H]1CCC[C@H]1N)C(=O)N1CCC[C@H](N1)C(=O)OCC(C)(C)C2 (atropisomer, axis not shown) : 7.00 to 8.00

Alright, here's another molecule for you.
Can you share its pIC50? I mean this molecule: CCn1c(-c2cccnc2[C@H](C)OC)c2c3cc(ccc31)-c1csc(n1)C[C@H](NC(=O)[C@H](C(C)C)N(C)C(=O)N1CC[C@@H](O)C1)C(=O)N1CCC[C@H](N1)C(=O)OCC(C)(C)C2 (atropisomer, axis not shown)
7.00 to 8.00

* * *

# EXPERIMENTAL TARGET: KRAS Q61H (Homo sapiens, UniProt P01116+P62937, Q61H)
# Sequence (P01116 1-169 isoform P01116-2 Q61H limits assumed): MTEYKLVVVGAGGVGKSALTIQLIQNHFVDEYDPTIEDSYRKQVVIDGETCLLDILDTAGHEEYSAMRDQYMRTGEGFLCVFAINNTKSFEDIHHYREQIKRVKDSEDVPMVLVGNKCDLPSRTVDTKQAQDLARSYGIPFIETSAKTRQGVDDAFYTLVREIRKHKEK
# Sequence (P62937 whole entry): as the sequence (P62937 whole entry) above
# ASSAY SUMMARY: Ras-Raf disruption / FRET / MOA assay (BRAF RBD)
# Type: biochemical
# COND: KRAS Q61H; read-out: KRAS Q61H FRET data IC50
Reported IC50 values for the following compounds.

CCn1c(-c2cccnc2[C@H](C)OC)c2c3cc(ccc31)-c1cc(O)cc(c1)C[C@H](NC(=O)[C@H](C(C)C)N1CC[C@]3(CCN(C(=O)[C@@H]4N[C@@H]4C4CC4)C3)C1=O)C(=O)N1CCC[C@H](N1)C(=O)OCC(C)(C)C2 : 0.01 to 0.1 µM
CCn1c(-c2cccnc2[C@H](C)OC)c2c3cc(ccc31)-c1cc(O)cc(c1)C[C@H](NC(=O)[C@H](C(C)C)N(C)C(=O)[C@H]1C[C@H](NC(=O)[C@@H]3CN3)C1)C(=O)N1CCC[C@H](N1)C(=O)OCC(C)(C)C2 : 0.01 to 0.1 µM
CCn1c(-c2cccnc2[C@H](C)OC)c2c3cc(ccc31)-c1csc(n1)C[C@H](NC(=O)[C@H](C(C)C)N(C)C(=O)N(C)CC1CN(C(=O)[C@@H]3CN3)C1)C(=O)N1CCC[C@H](N1)C(=O)OCC(C)(C)C2 (atropisomer, axis not shown) : 0.01 to 0.1 µM

Alright, here's another compound for you.
Can you share its IC50? I mean this compound: CCn1c(-c2cccnc2[C@H](C)OC)c2c3cc(ccc31)-c1cc(O)cc(c1)C[C@H](NC(=O)[C@H](C(C)C)N(C)C(=O)N1CCN(C(=O)[C@@H]3CN3)CC1=O)C(=O)N1CCC[C@H](N1)C(=O)OCC(C)(C)C2 (atropisomer, axis not shown)
0.01 to 0.1 µM

* * *

# EXPERIMENTAL TARGET: NRAS G12C (Homo sapiens, UniProt P01111+P62937, G12C)
# Sequence (P01111 whole entry G12C): as the sequence (P01111 whole entry Q61K) above, with G12C, K61Q counted along it
# Sequence (P62937 whole entry): as the sequence (P62937 whole entry) above
# ASSAY SUMMARY: Disruption of BRAF RBD interaction with Ras (FRET / MOA assay, with Cyclophilin A)
# Format: biochemical
# COND: NRAS G12C; read-out: NRAS G12C FRET data IC50
pIC50: −log10 of the molar value.
MEASUREMENT KIND: pIC50

Solved cases below.
CCn1c(-c2cccnc2[C@H](C)OC)c2c3cc(ccc31)-c1cccc(c1)C[C@H](NC(=O)[C@H](C(C)C)N(C)C(=O)[C@H]1CCN(C(=O)C#CC3CC(F)(F)CN3C)C1)C(=O)N1CCC[C@H](N1)C(=O)OCC(C)(C)C2 (some centres unmarked) : 7.00 to 8.00
CCn1c(-c2cccnc2[C@H](C)OC)c2c3cc(ccc31)-c1csc(n1)C[C@H](NC(=O)[C@H](C(C)C)N(C)C(=O)N1CC(CO)C1)C(=O)N1CCC[C@H](N1)C(=O)OCC(C)(C)C2 (atropisomer, axis not shown) : 7.00 to 8.00
C=CC(=O)N1CCOC2(CCN(C(=O)N(C)[C@H](C(=O)N[C@H]3Cc4nc(n(C)n4)-c4ccc5c(c4)c(c(-c4cccnc4[C@H](C)OC)n5CC(F)(F)F)CC(C)(C)COC(=O)C4CCCN(N4)C3=O)C(C)C)CC2)C1 (some centres unmarked) : 6.00 to 7.00
C=CS(=O)(=O)N1CC[C@H](C(=O)N(C)[C@H](C(=O)N[C@H]2Cc3cc(O)cc(c3)-c3ccc4c(c3)c(c(-c3cccnc3COC)n4CC)CC(C)(C)COC(=O)[C@@H]3CCCN(N3)C2=O)C(C)C)C1 : 7.00 to 8.00
CCn1c(-c2cccnc2[C@H](C)OC)c2c3cc(ccc31)-c1cc(O)cc(c1)C[C@H](NC(=O)[C@H](C(C)C)N(C)C(=O)[C@H]1CCN(C(=O)OC(C)(C)C)C1)C(=O)N1CCC[C@H](N1)C(=O)OCC(C)(C)C2 : 7.00 to 8.00

Can you share its pIC50? I mean this compound: CCn1c(-c2cccnc2[C@H](C)OC)c2c3cc(ccc31)-c1csc(n1)C[C@H](NC(=O)[C@H](C(C)C)N(C)C(=O)N1C[C@H]3OCCN(C)[C@H]3C1)C(=O)N1CCC[C@H](N1)C(=O)OCC(C)(C)C2 (atropisomer, axis not shown)
6.00 to 7.00

Can you share its pIC50? I mean this compound: CCn1c(-c2cccnc2[C@H](C)OC)c2c3cc(ccc31)-c1cccc(c1)C[C@H](NC(=O)[C@@H](COC1CN(C(=O)C#C[C@@H]3COCCN3C)C1)C(C)C)C(=O)N1CCC[C@H](N1)C(=O)OCC(C)(C)C2 (atropisomer, axis not shown)
6.00 to 7.00

Can you share its pIC50? I mean this compound: "CCn1c(-c2cncnc2)c2c3cc(ccc31)-c1cc(O)cc(c1)C[C@H](NC(=O)[C@H](C(C)C)N(C)C(=O)[C@H]1CCN(C(=O)C#CCN(C)C)C1)C(=O)N1CCC[C@H](N1)C(=O)OCC(C)(C)C2"
> 8.00

* * *

# EXPERIMENTAL TARGET: KRAS G12S (Homo sapiens, UniProt P01116+P62937, G12S)
# Sequence (P01116 1-169 isoform P01116-2 G12S limits assumed): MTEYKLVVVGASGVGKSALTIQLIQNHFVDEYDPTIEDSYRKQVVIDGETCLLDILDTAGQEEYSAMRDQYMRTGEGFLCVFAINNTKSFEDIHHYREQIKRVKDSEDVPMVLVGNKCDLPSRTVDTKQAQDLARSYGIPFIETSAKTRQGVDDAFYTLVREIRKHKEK
# Sequence (P62937 whole entry): as the sequence (P62937 whole entry) above
# ASSAY SUMMARY: Ras-Raf disruption / FRET / MOA assay (BRAF RBD)
# Format: biochemical
# COND: Ras-Raf disruption, with Cyclophilin A; read-out: KRAS G12S FRET data IC50
pIC50: −log10 of the molar value.
MEASUREMENT KIND: pIC50

CCn1c(-c2cccnc2[C@H](C)OC)c2c3cc(ccc31)-c1cc(O)cc(c1)C[C@H](NC(=O)[C@H](C(C)C)N(C)C(=O)[C@H]1C[C@H]3CC[C@@H](C1)N3C(=O)[C@H]1CN1)C(=O)N1CCC[C@H](N1)C(=O)OCC(C)(C)C2 (atropisomer, axis not shown) : 6.00 to 7.00

Alright, here's another molecule for you.
Can you share its pIC50? I mean this molecule: "CCCN=C=NCCC(=O)N(C)[C@H](C(=O)N[C@H]1Cc2cccc(c2)-c2ccc3c(c2)c(c(-c2cnccc2COC)n3CC)CC(C)(C)COC(=O)[C@@H]2CCCN(N2)C1=O)C(C)C"
5.00 to 6.00
